Record form. Attribute: IC50. Fill in for each entry.
- Test system: SN12C
- test-details: NCI-60 cytotoxicity screen
- Format: cell-based
- measurement-context: Homo sapiens, NCI-60, 48 h, renal
Numbers only here, please. The scale is µM.

# input What does the record list as IC50 for C=C(CN1CCN(c2ccccn2)CC1)c1ccc(C(=O)Nc2ccccc2N)cc1 [Compound 6] ?
# output 2.36

# input Entry Nc1ccccc1NC(=O)c1ccc(CNC(=O)OCc2cccnc2)cc1 [Compound 1, Entinostat, reference compound] : reported IC50 = ?
# output 9.4

# input Look up IC50 for this compound: C=C(CN1CCN(c2ccccc2C(F)(F)F)CC1)c1ccc(C(=O)Nc2ccccc2N)cc1 [Compound 3]
# output 6.43

# input Item under review: C=C(CN1CCN(c2cccc(C(F)(F)F)n2)CC1)c1ccc(C(=O)Nc2ccccc2N)cc1 [Compound 7] . Reported IC50?
# output 3.79

# input // IC50 lookup, key: C=C(CN1CCN(c2cccc(C(F)(F)F)c2)CC1)c1ccc(C(=O)Nc2ccccc2N)cc1 [Compound 4]
# output 0.29

# input Sample C=C(CN1CCN(c2ccc(C(F)(F)F)cc2)CC1)c1ccc(C(=O)Nc2ccccc2N)cc1 [Compound 5] — what was its IC50?
# output 6.37

---

- System: A2780 ovarian cancer cell line
- test-details: MTT cellular viability assay, A2780
- Type: cell-based
- measurement-context: Homo sapiens; listed as A2780* of Table 4, ovarian; values as in Tables 1 and 2 (MTT); read-out: A2780* cytotoxicity IC50
quantity: log10 IC50 (log10 of the value in nM)
For clarity, the numbers are log10 values of IC50 expressed in nM.

# input Field: log10 IC50 (A2780 ovarian cancer cell line). Entry: C=C(CN1CCN(c2ccccn2)CC1)c1ccc(C(=O)Nc2ccccc2N)cc1
# output 3.54

# input For the record C=C(CN1CCN(c2ccc(C(F)(F)F)cc2)CC1)c1ccc(C(=O)Nc2ccccc2N)cc1 , what value of log10 IC50 is listed for A2780 ovarian cancer cell line?
# output 3.28

# input Look up log10 IC50 with A2780 ovarian cancer cell line for this compound: C=C(CN1CCN(c2cccc(C(F)(F)F)c2)CC1)c1ccc(C(=O)Nc2ccccc2N)cc1
# output 3.20

# input Enter reported log10 IC50 observed with A2780 ovarian cancer cell line for Nc1ccccc1NC(=O)c1ccc(CNC(=O)OCc2cccnc2)cc1 [Compound 1, Entinostat, reference compound]
# output 2.78

# input Quick check: log10 IC50 on A2780 ovarian cancer cell line, item C=C(CN1CCN(c2cccc(C(F)(F)F)n2)CC1)c1ccc(C(=O)Nc2ccccc2N)cc1 ?
# output 2.90

# input Tell me reported log10 IC50 for C=C(CN1CCN(c2ccccc2C(F)(F)F)CC1)c1ccc(C(=O)Nc2ccccc2N)cc1 , tested with A2780 ovarian cancer cell line.
# output 3.88

---

- test-details: Maximum tolerated dose evaluation in nude mice
- Format: in vivo
- measurement-context: female, CD-1 nude (Crl:CD1-Foxn1^nu), mouse, in vivo, ip, single dose on 5 consecutive days
quantity: MTD (mg/kg)
Response body: numeric value in mg/kg, unit text excluded.

# input Fill in the blank: the reported MTD of C=C(CN1CCN(c2cccc(C(F)(F)F)n2)CC1)c1ccc(C(=O)Nc2ccccc2N)cc1 is ____.
# output 100

---

- Tested on: MCF-7
- test-details: NCI-60 cytotoxicity screen
- Type: cell-based
- measurement-context: Homo sapiens, MCF7; NCI-60, 48 h, breast
quantity: IC50 (nM)
Just the number please, in nM, no unit attached.

# input Would you kindly share the measured IC50 for C=C(CN1CCN(c2ccc(C(F)(F)F)cc2)CC1)c1ccc(C(=O)Nc2ccccc2N)cc1 ?
# output 10900

# input Quick one: IC50 for Nc1ccccc1NC(=O)c1ccc(CNC(=O)OCc2cccnc2)cc1 [Compound 1, Entinostat, reference compound] ?
# output 640

# input What measured IC50 goes with C=C(CN1CCN(c2ccccc2C(F)(F)F)CC1)c1ccc(C(=O)Nc2ccccc2N)cc1 ?
# output 4480

# input Give its IC50 value. Item: C=C(CN1CCN(c2ccccn2)CC1)c1ccc(C(=O)Nc2ccccc2N)cc1
# output 3160

# input Given the compound C=C(CN1CCN(c2cccc(C(F)(F)F)n2)CC1)c1ccc(C(=O)Nc2ccccc2N)cc1 , what is its reported IC50?
# output 350

# input Report IC50 for C=C(CN1CCN(c2cccc(C(F)(F)F)c2)CC1)c1ccc(C(=O)Nc2ccccc2N)cc1 please.
# output 1240

---

- System: OVCAR-8
- test-details: NCI-60 cytotoxicity screen
- Format: cell-based
- measurement-context: Homo sapiens, NCI-60, 48 h, ovarian
- Text: Compounds 3–7 were submitted to the US National Cancer Institute (NIH, Bethesda, Maryland) for screening against the NCI-60 panel of human cancer cell lines, as per standard protocol.
Just a reminder that ties go to F: only IC50 strictly below 4000 nM counts as T.

# input Report whether reported IC50 is lower than 4000 nM (strictly) for C=C(CN1CCN(c2ccccn2)CC1)c1ccc(C(=O)Nc2ccccc2N)cc1 [Compound 6]
# output T

# input Is 4000 nM strictly greater than the molecule's reported IC50? molecule: C=C(CN1CCN(c2cccc(C(F)(F)F)n2)CC1)c1ccc(C(=O)Nc2ccccc2N)cc1 [Compound 7]
# output F

# input Dear colleague, could you confirm whether IC50 of C=C(CN1CCN(c2ccccc2C(F)(F)F)CC1)c1ccc(C(=O)Nc2ccccc2N)cc1 [Compound 3] falls below 4000 nM? Thanks.
# output T

# input # check: IC50 < 4000 nM for Nc1ccccc1NC(=O)c1ccc(CNC(=O)OCc2cccnc2)cc1 [Compound 1, Entinostat, reference compound]
# output T

# input Item C=C(CN1CCN(c2ccc(C(F)(F)F)cc2)CC1)c1ccc(C(=O)Nc2ccccc2N)cc1 [Compound 5] : IC50 beneath 4000 nM, strictly?
# output F

# input Record C=C(CN1CCN(c2cccc(C(F)(F)F)c2)CC1)c1ccc(C(=O)Nc2ccccc2N)cc1 [Compound 4] : is its IC50 strictly below 4000 nM?
# output T

---

Would you kindly list IC50 for each of these compounds?
- System: SF-539
- test-details: NCI-60 cytotoxicity screen
- Assay type: cell-based
- measurement-context: Homo sapiens, NCI-60, 48 h, CNS
- Source text: Compounds 3–7 were submitted to the US National Cancer Institute (NIH, Bethesda, Maryland) for screening against the NCI-60 panel of human cancer cell lines, as per standard protocol.
Please respond with the number in nM and leave the unit unwritten.

# input Checklist item: IC50 tested on SF-539, entry C=C(CN1CCN(c2ccccn2)CC1)c1ccc(C(=O)Nc2ccccc2N)cc1 , value?
# output 1500

# input # returns recorded IC50 (system: SF-539) for C=C(CN1CCN(c2cccc(C(F)(F)F)c2)CC1)c1ccc(C(=O)Nc2ccccc2N)cc1
# output 540

# input Recall the recorded IC50 for Nc1ccccc1NC(=O)c1ccc(CNC(=O)OCc2cccnc2)cc1 [Compound 1, Entinostat, reference compound] with SF-539 and state it.
# output 3190

# input Lab note: need IC50 with SF-539 for entry C=C(CN1CCN(c2cccc(C(F)(F)F)n2)CC1)c1ccc(C(=O)Nc2ccccc2N)cc1 , please look it up.
# output 980

# input SF-539 / IC50 / C=C(CN1CCN(c2ccccc2C(F)(F)F)CC1)c1ccc(C(=O)Nc2ccccc2N)cc1 : value?
# output 3270

# input Form field - read-out: IC50; system: SF-539; submitted item: C=C(CN1CCN(c2ccc(C(F)(F)F)cc2)CC1)c1ccc(C(=O)Nc2ccccc2N)cc1
# output 8150

---

- Tested on: OVCAR-5
- test-details: NCI-60 cytotoxicity screen
- Type: cell-based
- measurement-context: Homo sapiens, NCI-60, 48 h, ovarian
quantity: pIC50
# pIC50: negative log10 of molar concentration; output just the value

# input For the compound C=C(CN1CCN(c2ccccc2C(F)(F)F)CC1)c1ccc(C(=O)Nc2ccccc2N)cc1 , what pIC50 is on record?
# output 4.93

# input Item under review: Nc1ccccc1NC(=O)c1ccc(CNC(=O)OCc2cccnc2)cc1 [Compound 1, Entinostat, reference compound] . Reported pIC50?
# output 5.98

# input Could you share which pIC50 value was measured for C=C(CN1CCN(c2cccc(C(F)(F)F)c2)CC1)c1ccc(C(=O)Nc2ccccc2N)cc1 ?
# output 5.18

# input Find the recorded pIC50 belonging to C=C(CN1CCN(c2cccc(C(F)(F)F)n2)CC1)c1ccc(C(=O)Nc2ccccc2N)cc1 and report it.
# output 6.15

# input Value lookup for pIC50; key = C=C(CN1CCN(c2ccccn2)CC1)c1ccc(C(=O)Nc2ccccc2N)cc1
# output 5.21

---

I'd be grateful if you could share measured pIC50 for these entries.
- Test system: SK-MEL-5
- test-details: NCI-60 cytotoxicity screen
- Format: cell-based
- measurement-context: Homo sapiens, NCI-60, 48 h, melanoma
Note on units: pIC50 is unitless, being -log10 of a concentration expressed in mol/L.

# input What value of pIC50 has been reported for the following compound? C=C(CN1CCN(c2ccccc2C(F)(F)F)CC1)c1ccc(C(=O)Nc2ccccc2N)cc1
# output 5.52

# input What does the record list as pIC50 for C=C(CN1CCN(c2ccccn2)CC1)c1ccc(C(=O)Nc2ccccc2N)cc1 ?
# output 6.14

# input Quick one: pIC50 of C=C(CN1CCN(c2cccc(C(F)(F)F)c2)CC1)c1ccc(C(=O)Nc2ccccc2N)cc1 ?
# output 6.24

# input For the compound C=C(CN1CCN(c2cccc(C(F)(F)F)n2)CC1)c1ccc(C(=O)Nc2ccccc2N)cc1 , what pIC50 is on record?
# output 6.40

# input // pIC50 lookup, key: Nc1ccccc1NC(=O)c1ccc(CNC(=O)OCc2cccnc2)cc1 [Compound 1, Entinostat, reference compound]
# output 6.13

# input Quick one: pIC50 for C=C(CN1CCN(c2ccc(C(F)(F)F)cc2)CC1)c1ccc(C(=O)Nc2ccccc2N)cc1 ?
# output 5.35

Value source: paper PMC12217109
